The reported measurements were obtained from patent US4816459A.

Please go through the items and note down their ED50.
- Test system: leukotriene D4-induced airway constriction reaction
- assay.notes: Inhibition of leukotriene D4-induced Type I allergic reaction (airway constriction), Konzett-Rossler procedure, intravenous injection
- Assay type: in vivo, guinea pig (male, Hartley strain)
- setup.conditions: Cavia porcellus, 2 min, leukotriene D4 0.5 μg/kg i.v. 2 minutes later, 50% inhibition of airway constriction, read-out: Inhibitory effect on Type I allergic reaction ID50 (intravenous)
Where a name gives a salt, the structure may show the parent alone.
Just the number in mg/kg, nothing appended.

Could you share what ED50 was measured for CCCc1c(OCc2cccn3c(=O)c(Cc4nnn[nH]4)cnc23)ccc(C(C)=O)c1O , tested on leukotriene D4-induced airway constriction reaction?
0.11

Also CCCc1c(OCc2ccc3ncc(-c4nnn[nH]4)c(=O)n3c2)ccc(C(C)=O)c1O , if possible.
0.16

Also CCCc1c(OCc2cc(Br)cn3c(=O)c(-c4nnn[nH]4)cnc23)ccc(C(C)=O)c1O , if possible.
4.9

Also CCCc1c(OCc2cc(C)cn3c(=O)c(Cc4nnn[nH]4)cnc23)ccc(C(C)=O)c1O , if possible.
1.9

Also CCCc1c(OCc2cccn3c(=O)c(CCc4nnn[nH]4)cnc23)ccc(C(C)=O)c1O , if possible.
0.038

Also CCCc1c(OCc2cccn3c(=O)c(-c4nn[nH]n4)cnc23)ccc(C(C)=O)c1O [Example 12, potassium salt] , if possible.
0.097

Also CCCc1c(OCc2cccn3c(=O)c(-c4nnn[nH]4)cnc23)ccc(C(C)=O)c1O , if possible.
0.097

Also CCCc1c(OCc2ccn3c(=O)c(-c4nnn[nH]4)cnc3c2)ccc(C(C)=O)c1O , if possible.
0.17

Also CCCc1c(OCc2cc(Br)cn3c(=O)c(CCc4nnn[nH]4)cnc23)ccc(C(C)=O)c1O , if possible.
2.9

* * *

- Tested on: leukotriene D4-induced airway constriction reaction
- assay.notes: Inhibition of leukotriene D4-induced Type I allergic reaction (airway constriction), Konzett-Rossler procedure, oral administration
- Type: in vivo, guinea pig (male, Hartley strain)
- setup.conditions: Cavia porcellus; oral 90 minutes before anesthesia; leukotriene D4 0.5 μg/kg i.v.; 50% inhibition of airway constriction; read-out: Inhibitory effect on Type I allergic reaction ID50 (oral)
Structures can show the parent of a compound that is named as a salt.
Please go through the items and note down their ED50.
Just the number in mg/kg, nothing appended.

Which ED50 is listed for CCCc1c(OCc2cccn3c(=O)c(-c4nnn[nH]4)cnc23)ccc(C(C)=O)c1O [Example 1] ?
9

Also CCCc1c(OCc2cccn3c(=O)c(CCc4nnn[nH]4)cnc23)ccc(C(C)=O)c1O [Example 9] , if possible.
5

Also CCCc1c(OCc2cccn3c(=O)c(-c4nn[nH]n4)cnc23)ccc(C(C)=O)c1O [Example 12, potassium salt] , if possible.
10

Also CCCc1c(OCc2cccn3c(=O)c(Cc4nnn[nH]4)cnc23)ccc(C(C)=O)c1O [Example 6] , if possible.
10

* * *

Please go through the items and note down their LD50.
- assay.notes: Acute toxicity (LD50) in rats
- setup.conditions: rat, in vivo; intravenous; male SD strain rats; read-out: LD50, intravenous, rats

Which LD50 is listed for CCCc1c(OCc2cccn3c(=O)c(Cc4nnn[nH]4)cnc23)ccc(C(C)=O)c1O ?
≥ 200 mg/kg

Also CCCc1c(OCc2cccn3c(=O)c(CCc4nnn[nH]4)cnc23)ccc(C(C)=O)c1O , if possible.
≥ 200 mg/kg

Also CCCc1c(OCc2cccn3c(=O)c(-c4nnn[nH]4)cnc23)ccc(C(C)=O)c1O , if possible.
≥ 200 mg/kg

* * *

Please go through the items and note down their LD50.
- assay.notes: Acute toxicity (LD50) in rats
- setup.conditions: rat, in vivo; oral; male SD strain rats; read-out: LD50, oral, rats

Which LD50 is listed for CCCc1c(OCc2cccn3c(=O)c(CCc4nnn[nH]4)cnc23)ccc(C(C)=O)c1O [Example 9] ?
≥ 4000 mg/kg

Also CCCc1c(OCc2cccn3c(=O)c(-c4nnn[nH]4)cnc23)ccc(C(C)=O)c1O [Example 1] , if possible.
≥ 4000 mg/kg

Also CCCc1c(OCc2cccn3c(=O)c(Cc4nnn[nH]4)cnc23)ccc(C(C)=O)c1O [Example 6] , if possible.
≥ 4000 mg/kg
